Exercise: state measured protein stability index for each of the variants provided.
B1: ZC3H15 (parent)
chain: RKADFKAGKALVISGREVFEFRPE

variants of: B1; test: protein stability index of a GFP-peptide fusion (GPS, HEK-293T) (PSI 1-6); higher = more stable; details: c terminus: a fixed tail appended;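 note: lentivirally expressed fusions sorted by FACS into six bins by GFP to DsRed ratio, PSI derived from sequencing read proportions per bin multiplied by bin number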
Answer with a number only.

// sample RKADFKAGKALVISGREVFEERPE [F21E] , its protein stability index was 4.46

// sample RKADFKAGKALVISGREVFEFRPD [E24D] , its protein stability index was 3.11

// sample RKADFKGGKALVISGREVFEFRPE [A7G] , its protein stability index was 2.86

// sample RKADAKAGKALVISGREVFEFRPE [F5A] , its protein stability index was 3.91

// sample RKADFKAGKHLVISGREVFEFRPE [A10H] , its protein stability index was 2.75

// sample RKADFKAGKATVISGREVFEFRPE [L11T] , its protein stability index was 3.76

// sample RKADFKAGKALVISGRDVFEFRPE [E17D] , its protein stability index was 2.88

// sample RKADFKAGKALVISHREVFEFRPE [G15H] , its protein stability index was 2.2

// sample RCADFKAGKALVISGREVFEFRPE [K2C] , its protein stability index was 1.85

// sample RKADFKAGKALVISGREVFEFRPC [E24C] , its protein stability index was 2.22

// sample RKADFKAGKALVISGRFVFEFRPE [E17F] , its protein stability index was 2.17

Values from the supplement of paper PMC10567573
